# Tested on: L1210 leukemia ip in BDF1 mice, survival T/C
# test: NCI In Vivo Anticancer Drug Screen. Data for tumor model L1210 Leukemia (intraperitoneal) in B6D2F1 (BDF1) mice
# particulars: endpoint: mean survival time; dose: 100.0 mg/kg/injection; schedule: Q01DX001 (ip); vehicle: saline with Tween-80; higher = longer survival
Inconclusive results and toxic doses are left out.
Answer each item with its documented T/C.

Some entries whose results are on file:
{"molecule": "CCOC(=O)c1ccc(NCc2nnc3nc(N)nc(SCc4ccccc4)c3n2)cc1", "T/C": "96 % of control"}
{"molecule": "CC(C)CCOC(=O)c1ccccc1OC(=O)Nc1ccc(Cl)cc1[N+](=O)[O-]", "T/C": "102 % of control"}
{"molecule": "c1ccc2c3c(ccc2c1)OCCCCCOc1ccc2ccccc2c1-c1c(ccc2ccccc12)OCCOCCOc1ccc2ccccc2c1-3", "T/C": "92 % of control"}
{"molecule": "NC(=S)N/N=C/c1[nH]c(=O)[nH]c(=O)c1Br", "T/C": "93 % of control"}

Now for another entry.
Query: Please report the recorded T/C for Cc1ccc(S(=O)(=O)N2C(=O)CCC2C(=O)O)cc1 (stereo not given) .
Response: 100 % of control
